# System: DU-145 prostate
# assayOverview: NCI-60 one-dose screen, 48 h (100 = growth as untreated, 0 = no growth, -100 = all killed)
# assayContext: 10 µM unless noted
# Experimental: Cells are grown in 96 well plates and exposed to the test compound for 48 hours. Compounds are tested at a single concentration, which is 10^-5 M for most compounds. The reported endpoint is percent growth (GI% or GIPRCNT), where numbers from 0 - 100% represent growth inhibition, and numbers from -100% - 0 represent cell death. For example, a value of 40 represents 60% growth inhibition. A value of 0 means no net growth occurred over the course of the experiment. […]
Compounds without any hit were thinned out: in the full panel of roughly 83,000, 20% have a hit.

smilesStructure: Cn1cc(-c2cc3nc(-c4c[nH]c5ccccc45)cc(N)n3n2)c2ccccc21
growth [%]: 11.6
--
smilesStructure: COc1cccc(/C=C/c2nc3ccccc3c(=O)n2CC(=O)Nc2ccccc2)c1
growth [%]: 87.8
--
smilesStructure: O=C(Nc1ccc(F)cc1)Nc1nc2ccc([N+](=O)[O-])cc2s1
growth [%]: 24.2
--
smilesStructure: Cn1cc(-c2cc(N)n3nc(-c4c[nH]c5ccc(F)cc45)cc3n2)c2cc(Br)cnc21
growth [%]: 69.9
--
smilesStructure: O=C(COc1ccc(/C=C2/C(=O)Nc3ccc(Cl)cc32)cc1)Nc1ccc(Br)cc1
growth [%]: -9.85

###

# Tested on: SNB-75 CNS
# assayOverview: NCI-60 one-dose screen, 48 h (100 = growth as untreated, 0 = no growth, -100 = all killed)
# assayContext: 10 µM unless noted
This is part of a sample that, as a whole, favours compounds with a hit. Of some 83,000 tested, about 20% had one in any assay.
Answer Condition not met if growth is under 50%, and Condition met if it is 50% or more.

molecule: OC1CCC(Cn2c(C(F)(F)F)cc3c(Cl)ncnc32)CC1 (centres undefined)
class: Condition not met
//
molecule: O=c1[nH]c2ccccc2cc1COc1ccc(Nc2nccc(-c3ccc(Cl)cc3)n2)cc1
class: Condition met
//
molecule: CC1=C(C(=O)Nc2ccccc2)C(c2ccc3ccccc3c2)n2c(nc3ccccc32)N1 (centres undefined)
class: Condition not met
//
molecule: COc1cc(CNC(=O)C[C@H](C)CCC=C(C)C)ccc1OCc1cn(-c2ccccc2F)nn1
class: Condition not met
//
molecule: Cc1cccc(/C=C/c2ccc(NC(=S)NCCCCN(C)C)cc2)c1
class: Condition not met
//
molecule: COc1ccc2[nH]c(O)c(N=Nc3nc(-c4ccc(C#N)cc4)cs3)c2c1
class: Condition not met
//
molecule: N#C/C(=C1/C(=O)Nc2ccccc21)c1nnc(NC(=O)c2ccc(-n3c(=O)[nH]c4ccccc4c3=O)cc2)s1
class: Condition met
//
molecule: COc1ccc(NC(=O)CSc2nnc(-c3ccc(-c4nc5ccc(Cl)cc5[nH]4)cc3)o2)cc1
class: Condition not met
//
molecule: O=C(Cc1c(-c2cccc([N+](=O)[O-])c2)n(-c2ncnc3c2c(-c2ccccc2)c(-c2ccccc2)n3Cc2ccccc2)[nH]c1=O)c1ccc(Cl)c(Cl)c1
class: Condition not met

###

Each item that follows carries a reported growth.
# Tested on: SK-OV-3 ovarian
# assayOverview: NCI-60 one-dose screen, 48 h (100 = growth as untreated, 0 = no growth, -100 = all killed)
# assayContext: 10 µM unless noted
This is part of a sample that, as a whole, favours compounds with a hit. Of some 83,000 tested, about 20% had one in any assay.
experimentalReadout: growth (%)

molecule: COc1ccc(/C=C/c2nc3ccccc3n3c(-c4cccc([N+](=O)[O-])c4)nnc23)cc1
quantitativeResult: 25.6

molecule: COc1ccc2c(c1)C(Sc1ccc(Br)cc1)c1c(nc(N)c(C#N)c1N)O2 (centres undefined)
quantitativeResult: 98.1

molecule: Nc1nn2c(-c3cc4cc(Br)ccc4oc3=O)ccnc2c1N=Nc1ccc(Br)cc1
quantitativeResult: 22.4

molecule: Cc1cccc(C)c1Nc1nnc(-c2c[nH]c3ccccc23)o1
quantitativeResult: 76.9

molecule: Nc1nnc(-c2cncc(Br)c2)c(-c2c[nH]c3ccc(Cl)cc23)n1
quantitativeResult: 103

molecule: COc1cc(C2CC(c3ccc(C(F)(F)F)cc3)=Nc3c(N)nc(N)nc3N2)ccc1Oc1nc(Nc2ccc(F)cc2)nc(N(C)C)n1 (centres undefined)
quantitativeResult: 90.8

molecule: Cc1ccc(C(=O)Nc2cccc(C(=O)NC(=S)Nc3ccc(S(N)(=O)=O)cc3)c2)cc1
quantitativeResult: 77

molecule: Cc1nc2sccn2c1-c1nnc(SCC(C)C)o1
quantitativeResult: 102

molecule: CS(=O)(=O)Nc1cncc(-c2ccc3ncnc(NCc4ccccc4)c3c2)c1
quantitativeResult: 67.6

molecule: Fc1ccc(Nc2nnc(-c3c[nH]c4ccccc34)o2)cc1
quantitativeResult: 83.6

molecule: CCN1CCN(Cc2ccc(C(=O)Nc3cccc(Nc4ccc5c(OC)cccc5n4)c3)cc2C(F)(F)F)CC1
quantitativeResult: -8.33

molecule: COc1ccc(N=Nc2c(N)nn3c(-c4ccc([N+](=O)[O-])cc4)ccnc23)cc1
quantitativeResult: 106

molecule: CCC1(OC(=O)c2ccccc2SSCCOC(=O)CCCCC2SCC3NC(=O)NC32)C(=O)OCc2c1cc1n(c2=O)Cc2cc3ccccc3nc2-1 (centres undefined)
quantitativeResult: 46.3

molecule: COc1ccc(CCC2NCCc3c(Br)c4c(c(OC)c32)OCO4)cc1 (centres undefined)
quantitativeResult: 28.8

molecule: COc1cc(-c2ccc3ncnc(N4CCc5ccc(Cl)cc54)c3c2)cnc1Cl
quantitativeResult: 17.4

molecule: N#Cc1cc(-c2ccc3ncnc(N4CCc5cc(F)c(Cl)cc54)c3c2)cnc1N
quantitativeResult: 64.3

molecule: CCOc1ccccc1[C@H]1C(C(=O)c2ccc(Cl)cc2)C2(N[C@@H]1c1ccccc1)C(=O)Nc1ccccc12 (some centres undefined)
quantitativeResult: 26

molecule: COc1cc(CNC(=O)C[C@H](C)CCC=C(C)C)ccc1OCc1cn(-c2ccccc2F)nn1
quantitativeResult: 43.6

molecule: COc1ccc2oc(=O)c(-c3csc(N/N=C(\C)c4cc(OC)c(OC)c(OC)c4)n3)cc2c1
quantitativeResult: 172

###

# System: OVCAR-8 ovarian
# assayOverview: NCI-60 one-dose screen, 48 h (100 = growth as untreated, 0 = no growth, -100 = all killed)
# assayContext: 10 µM unless noted
Compounds without any hit were thinned out: in the full panel of roughly 83,000, 20% have a hit.
Cut-off 10% on growth: below means Criterion met, at or above means Criterion not met.

compound: Nc1nc(-c2ccccc2)c(N=Nc2ccc(Cl)cc2Cl)s1
studySystem: OVCAR-8 ovarian
class: Criterion not met

compound: COc1cc(NC(=O)C(C)C)ccc1C(=O)NC(=S)Nc1ccc(S(N)(=O)=O)cc1
studySystem: OVCAR-8 ovarian
class: Criterion not met

compound: Cc1[nH]nc2ccc3nc(-c4cnn(CCO)c4)c4c(c3c12)CCCC4
studySystem: OVCAR-8 ovarian
class: Criterion not met

compound: CC1CCc2c(sc3nc(SCC(=O)c4cccc([N+](=O)[O-])c4)n(-c4ccccc4)c(=O)c23)C1 (centres undefined)
studySystem: OVCAR-8 ovarian
class: Criterion not met

compound: Cc1nc2sccn2c1-c1nnc(SCC(C)C)o1
studySystem: OVCAR-8 ovarian
class: Criterion not met

compound: CCCCNc1ccc2c3c(cccc13)C(=O)N(NCC(O)COc1ccc3c(C)cc(=O)oc3c1)C2=O (centres undefined)
studySystem: OVCAR-8 ovarian
class: Criterion not met

compound: N/C(=N\c1nc2ccccc2s1)NC(=O)Nc1ccccc1[N+](=O)[O-]
studySystem: OVCAR-8 ovarian
class: Criterion met

compound: COc1ccc(N=Nc2c(N)nn3c(N)c(C#N)c(-c4ccccc4)nc23)cc1
studySystem: OVCAR-8 ovarian
class: Criterion met

compound: C=CCn1c(O)c(N=Nc2nc(-c3cc4ccccc4oc3=O)cs2)c2ccccc21
studySystem: OVCAR-8 ovarian
class: Criterion not met

compound: Cn1cc(-c2cc(N)n3nc(-c4c[nH]c5ccc(Cl)cc45)cc3n2)c2cccnc21
studySystem: OVCAR-8 ovarian
class: Criterion met

compound: CC[C@]12C=CCN3CC[C@@]4(c5ccc(OC)cc5N(C)[C@H]4[C@@](O)(C(=O)OC)[C@@H]1OC(=O)CCCC[P+](c1ccc(F)cc1)(c1ccc(F)cc1)c1ccc(F)cc1)[C@@H]32
studySystem: OVCAR-8 ovarian
class: Criterion not met

compound: COC(=O)c1cccc(Oc2ccc(NC(=O)Nc3cc(C(F)(F)F)ccc3F)cc2)c1
studySystem: OVCAR-8 ovarian
class: Criterion not met

compound: Nc1cc2ccccc2c(=O)n1NC(=O)c1ccccc1
studySystem: OVCAR-8 ovarian
class: Criterion not met

compound: O=C(OCCOCCO)N(c1cccc(Br)c1)c1nc(SCCN2CCOCC2)nc2c1cnn2CC(Cl)c1ccc(Br)cc1 (centres undefined)
studySystem: OVCAR-8 ovarian
class: Criterion not met

compound: COc1ccc(NC(=O)Cn2c(/C=C/c3cccc(OC)c3)nc3ccccc3c2=O)cc1
studySystem: OVCAR-8 ovarian
class: Criterion not met

compound: O=C(N/N=C/c1ccc(B(O)O)s1)c1[nH]c2ccc(Br)cc2c1-c1ccccc1
studySystem: OVCAR-8 ovarian
class: Criterion met

compound: Fc1ccc(N2CC(Cn3c(C(F)(F)F)cc4c(Cl)ncnc43)C2)c(F)c1
studySystem: OVCAR-8 ovarian
class: Criterion met

compound: COc1ccccc1Nc1nnc(-c2c[nH]c3ccccc23)o1
studySystem: OVCAR-8 ovarian
class: Criterion not met
